Just for reference, patent US9693556B2 is where these values come from.

Test system: Ipomoea hederacea (IPOHE)
Experiment: Pre-emergence herbicidal glasshouse test on Ipomoea hederacea
Assay type: in vivo
Details: pre-emergence; 1000 g/h; evaluated after 13 days
RECORDED_ENDPOINT: PRE Application IPOHE herbicidal damage (five point scale)

For orientation, consider the following solved cases.
Quick one: PRE Application IPOHE herbicidal damage (five point scale) for COCCOc1c(S(C)(=O)=O)ccc(-c2cnn(C)c(=O)c2O)c1Cl [Compound 1.034] ? 3 (3=40-59% damage)

Return reported PRE Application IPOHE herbicidal damage (five point scale); argument: Cn1ncc(-c2ccc(C(F)(F)F)nc2Cl)c(O)c1=O [Compound 4.014] 2 (2=20-39% damage)

// returns reported PRE Application IPOHE herbicidal damage (five point scale) for input Cn1ncc(-c2ccc(Cl)cc2[S+](C)[O-])c(O)c1=O (stereo not shown) [Compound 1.059] 5 (5=80-100% damage)

// returns reported PRE Application IPOHE herbicidal damage (five point scale) for input CCCCn1cc(C)cc(-c2cnn(C)c(=O)c2O)c1=O [Compound 6.003] 1 (1=0-19% damage)

Could you tell me which PRE Application IPOHE herbicidal damage (five point scale) is on file for Cn1ncc(-n2ccc(C(F)(F)F)cc2=O)c(O)c1=O [Compound 1.078] ? 2 (2=20-39% damage)

Further cases:
Find the recorded PRE Application IPOHE herbicidal damage (five point scale) belonging to Cc1ccccc1-c1c(C(F)(F)F)ccn(-c2cnn(C)c(=O)c2O)c1=O [Compound 1.053] and report it. 2 (2=20-39% damage)

Using the record for C=C(C)c1nn(C)c(=O)c(O)c1-c1ccc(S(C)(=O)=O)c(C2=NOCC2)c1C [Compound 2.023] , report its PRE Application IPOHE herbicidal damage (five point scale). 4 (4=60-79% damage)

###

System: Setaria faberi (SETFA)
Test: Post-emergence herbicidal glasshouse test on Setaria faberi
Type: in vivo
Settings: post-emergence; 1000 g/h; evaluated after 13 days
RECORDED_ENDPOINT: POST Application SETFA herbicidal damage (five point scale)

// worked examples, POST Application SETFA herbicidal damage (five point scale) included
Which value of POST Application SETFA herbicidal damage (five point scale) has been reported for COCn1ncc(-c2ccccc2S(C)(=O)=O)c(O)c1=O [Compound 1.144] in the records? 5 (5=80-100% damage)

May I ask what POST Application SETFA herbicidal damage (five point scale) has been recorded for Cn1ncc(-c2ccc(F)cc2[S+](C)[O-])c(O)c1=O (stereo not drawn) [Compound 1.057] ? 5 (5=80-100% damage)

Could you tell me which POST Application SETFA herbicidal damage (five point scale) is on file for Cc1cc(C#N)ccc1-c1cnn(C)c(=O)c1O [Compound 1.084] ? 2 (2=20-39% damage)

***
Recorded POST Application SETFA herbicidal damage (five point scale) of CCn1ncc(-c2ccc(S(C)(=O)=O)c(C3=NOCC3)c2Cl)c(O)c1=O [Compound 1.009] , please. 5 (5=80-100% damage)

Return reported POST Application SETFA herbicidal damage (five point scale); argument: Cn1ncc(-n2cc(N3CCOCC3)c(C(F)(F)F)cc2=O)c(O)c1=O [Compound 1.025] 1 (1=0-19% damage)

# lookup: POST Application SETFA herbicidal damage (five point scale) of Cn1ncc(-c2ccc([N+](=O)[O-])cc2S(C)(=O)=O)c(O)c1=O [Compound 2.032] 4 (4=60-79% damage)

# lookup: POST Application SETFA herbicidal damage (five point scale) of C=C(C)c1nn(C)c(=O)c(O)c1-c1ccc(S(C)(=O)=O)c(C2=NOCC2)c1C [Compound 2.023] 5 (5=80-100% damage)

// POST Application SETFA herbicidal damage (five point scale) lookup, key: Cn1ncc(-c2ccccc2[S+]([O-])C(F)(F)F)c(O)c1=O (stereo not drawn) [Compound 1.055] 1 (1=0-19% damage)

Sample Cc1ccccc1-c1c(C(F)(F)F)ccn(-c2cnn(C)c(=O)c2O)c1=O [Compound 1.053] — what was its POST Application SETFA herbicidal damage (five point scale)? 4 (4=60-79% damage)
